Data origin: ChEMBL document CHEMBL5058577

system: U2OS; assay: Multiplex assay against U2OS; format: toxicity, cell-based; settings: human, 48 h, 1 µM, compound concentration 1 uM, replicate 2
Provide the reported Population Hoechst High Intensity Objects (%) of each item.
Could you kindly put the unit after your number?

**Q:** Population Hoechst High Intensity Objects (%) for C[C@H](NC(=O)CNC(=O)c1cccc(Cl)c1)c1ccccc1 ?
**A:** 2%

**Q:** Also check O=C(NCCNCC(O)COc1ccc(O)cc1)N1CCOCC1.O=C(NCCNCC(O)COc1ccc(O)cc1)N1CCOCC1.O=C(O)/C=C/C(=O)O (stereo not given) [XAMOTEROL FUMARATE]
**A:** 2%

**Q:** Also check COc1cc2nc(N3CCN(C(=O)c4ccco4)CC3)nc(N)c2cc1OC.Cl [PRAZOSIN HYDROCHLORIDE]
**A:** 1%

**Q:** Also check CN1CCN(c2ccc(Nc3c4ccccc4nc4ccccc34)cc2)CC1.Cl.Cl.O
**A:** 5%

**Q:** Also check Cc1c(Cc2ccc3ccccc3n2)c2cc(F)ccc2n1CC(=O)O [TIMAPIPRANT]
**A:** 2%

**Q:** Also check O=C(Nc1cc(-c2ccccc2)nn1-c1ccccc1F)c1ccc([N+](=O)[O-])cc1
**A:** 1%

**Q:** Also check N[C@](CC1c2ccccc2Oc2ccccc21)(C(=O)O)[C@H]1C[C@@H]1C(=O)O
**A:** 1%

**Q:** Also check CC(C)(C)c1ccc(CSc2cnn(C(C)(C)C)c(=O)c2Cl)cc1 [PYRIDABEN]
**A:** 6%

**Q:** Also check Cc1cc(-c2ccc3c(c2)CC[C@H]3N2CC3(CCN(C(=O)Cc4cn5cc(C)sc5n4)CC3)C2)ncn1 [PF-5190457]
**A:** 2%

**Q:** Also check COCCCN1CCC(NC(=O)c2cc(Cl)c(N)c3c2OCC3)CC1 [PRUCALOPRIDE]
**A:** 2%

====

Provide the reported Population Healthy Nuclei (%) of each item.
system: HEK-293T; assay: Multiplex assay against HEK293T; format: toxicity, cell-based; details: human, 24 h, 1 µM, compound concentration 1 uM, replicate 1
Write the value in % as a bare number.

**Q:** Population Healthy Nuclei (%) for COc1ccc2[nH]c(I)c(CCNC(C)=O)c2c1 ?
**A:** 80

**Q:** Also check C=CCN1C[C@H](C(=O)N(CCCN(C)C)C(=O)NCC)C[C@@H]2c3cccc4[nH]cc(c34)C[C@H]21
**A:** 80

**Q:** Also check CC(C)(C)c1ccc(CSc2cnn(C(C)(C)C)c(=O)c2Cl)cc1
**A:** 80

**Q:** Also check Cc1cc(-c2ccc3c(c2)CC[C@H]3N2CC3(CCN(C(=O)Cc4cn5cc(C)sc5n4)CC3)C2)ncn1
**A:** 77

**Q:** Also check CN(C)C/C=C/C(=O)Nc1ccc(C(=O)N2CCCC(Nc3ncc(Cl)c(-c4c[nH]c5ccccc45)n3)C2)cc1 (configuration not stated)
**A:** 62

**Q:** Also check Nc1nc(CC(=O)Nc2ccc(CCNC[C@H](O)c3ccccc3)cc2)cs1
**A:** 80

**Q:** Also check CSc1nc(NC2CCCC2)c([N+](=O)[O-])c(NC2CCCC2)n1
**A:** 76

====

tested on: Fibroblast; experiment: Multiplex assay against human fibroblast; assay type: toxicity, cell-based; conditions: 24 h, 10 µM, compound concentration 10 uM, replicate 2
Provide the reported Total Cell Count of each item.
Please give the numeric answer without any surrounding text.

**Q:** Notebook entry, Fibroblast assay: Total Cell Count of Cc1c(Cc2ccc3ccccc3n2)c2cc(F)ccc2n1CC(=O)O [TIMAPIPRANT] = ?
**A:** 164

**Q:** Also check COc1ccc2c(c1OCc1ccccc1)C[C@@H](C(=O)O)N(C(=O)C(c1ccccc1)c1ccccc1)C2 [OLODANRIGAN]
**A:** 153

**Q:** Also check Nc1nc(CC(=O)Nc2ccc(CCNC[C@H](O)c3ccccc3)cc2)cs1 [MIRABEGRON]
**A:** 131
